target: human β2AR (human, UniProt P07550 2-365); test: cell-based or functional assay
Bridge positions count the residues as written; N and C are the ends. Square brackets hold non-standard residues; d marks the D form. Primed or numbered codes have the meaning given here. Pra″ = alkyne-bearing residue joined to Azk by a CuAAC triazole staple; Azk = residue with azidated side chain, clicked to Pra; Pra′ = residue with alkynyl side chain, clicked to Azk; Lys(N3) = [N-]=[N+]=NCCCC[C@H](N)C(=O)O; Aad = N[C@@H](CCCC(=O)O)C(=O)O
Readout type: Shift (averaged)
Response field accepts a number only; no unit should be typed.

### Prompt Give the value of Shift (averaged) reported for the following: Ac-KKKFN[Pra″]CRD[Lys(N3)]IQRMHLRQYEFL-OH (triazole 6-10) [compound 62]
### Response 87

### Prompt Give the value of Shift (averaged) reported for the following: Ac-FN[Pra′]CRD[Azk]IQRMHLRQWELL-OH [compound 29]
### Response 4

### Prompt Give the value of Shift (averaged) reported for the following: Ac-KKKFN[Pra′]CRD[Azk]IQRMHLRQYELI-OH (triazole 6-10) [compound 47]
### Response 64

### Prompt Give the value of Shift (averaged) reported for the following: Ac-FNDCRDIIQRMHLRQYELA-OH [compound 79]
### Response 1

### Prompt Give the value of Shift (averaged) reported for the following: Ac-FN[Pra′]CRD[Azk]IQRMHLRQWELL-OH (triazole 3-7) [compound 30]
### Response 9

### Prompt Give the value of Shift (averaged) reported for the following: Ac-NARRIFNDCRDIIQRMHLRQYELL-OH [compound 72]
### Response 47

### Prompt Give the value of Shift (averaged) reported for the following: Ac-RFN[Pra′]CRD[Azk]IQRMHLRQYELL-OH (triazole 4-8) [compound 40]
### Response 37

### Prompt Give the value of Shift (averaged) reported for the following: Ac-KKKFN[Pra′]CRD[Azk]IQRMHLRQY[Aad]LL-OH (triazole 6-10) [compound 53]
### Response 38

### Prompt Give the value of Shift (averaged) reported for the following: Ac-KFN[Pra′]CRD[Azk]IQRMHLRQYEIL-OH (triazole 4-8) [compound 48]
### Response 8

### Prompt Give the value of Shift (averaged) reported for the following: Ac-KKKFN[Pra′]CRD[Azk]IQRMHLRQYELL-OH (triazole 6-10) [compound 42]
### Response 49

### Prompt Give the value of Shift (averaged) reported for the following: Ac-FN[Pra′]CRN[Azk]IQRMHLRQYELL-OH (triazole 3-7) [compound 38]
### Response 7

### Prompt Give the value of Shift (averaged) reported for the following: Ac-KKKFN[Pra′]CRD[Azk]IQRMHLRQYEIL-OH (triazole 6-10) [compound 49]
### Response 11
